- tgt: Midkine (Homo sapiens, UniProt P21741)
- Sequence (P21741 whole entry): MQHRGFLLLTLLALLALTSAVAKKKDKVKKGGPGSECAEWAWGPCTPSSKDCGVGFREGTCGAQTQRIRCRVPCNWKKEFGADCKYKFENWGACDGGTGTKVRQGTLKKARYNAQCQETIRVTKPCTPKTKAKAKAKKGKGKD
- assay-remarks: Binding affinity to recombinant midkine after 3 mins
measure: Kd (nM)
One number for each entry, in nM.

See these solved cases before continuing.
smiles-data	readout-units	Kd
CC(=O)N[C@H]1[C@H](O[C@H]2[C@H](O)[C@@H](O)[C@H](O[C@@H]3[C@@H](NC(C)=O)[C@H](O[C@H]4[C@H](O)[C@@H](O)[C@H](OCCNC(=O)CCOCCOCCOCCOCCNC(=O)CCCC[C@@H]5SC[C@@H]6NC(=O)N[C@@H]65)O[C@@H]4C(=O)O)O[C@H](CO)[C@@H]3OS(=O)(=O)O)O[C@@H]2C(=O)O)O[C@H](CO)[C@H](OS(=O)(=O)O)[C@@H]1O	nM	17.8
CC(=O)N[C@H]1[C@H](O[C@H]2[C@H](O)[C@@H](O)[C@H](O[C@@H]3[C@@H](NC(C)=O)[C@H](O[C@H]4[C@H](O)[C@@H](O)[C@H](OCCNC(=O)CCOCCOCCOCCOCCNC(=O)CCCC[C@@H]5SC[C@@H]6NC(=O)N[C@@H]65)O[C@@H]4C(=O)O)O[C@H](CO)[C@@H]3OS(=O)(=O)O)O[C@@H]2C(=O)O)O[C@H](COS(=O)(=O)O)[C@H](OS(=O)(=O)O)[C@@H]1O	nM	11.6
CC(=O)N[C@H]1[C@H](O[C@H]2[C@H](O)[C@@H](O)[C@H](O[C@@H]3[C@@H](NC(C)=O)[C@H](O[C@H]4[C@H](O)[C@@H](O)[C@H](OCCNC(=O)CCOCCOCCOCCOCCNC(=O)CCCC[C@@H]5SC[C@@H]6NC(=O)N[C@@H]65)O[C@@H]4C(=O)O)O[C@H](COS(=O)(=O)O)[C@@H]3OS(=O)(=O)O)O[C@@H]2C(=O)O)O[C@H](COS(=O)(=O)O)[C@H](OS(=O)(=O)O)[C@@H]1O	nM	2.62

Okay, now this molecule:
### Prompt Find the measured Kd of `CC(=O)N[C@H]1[C@H](O[C@H]2[C@H](O)[C@@H](O)[C@H](O[C@H]3[C@@H](O)[C@@H](CO)O[C@@H](O[C@H]4[C@H](O)[C@@H](O)[C@H](OCCNC(=O)CCOCCOCCOCCOCCNC(=O)CCCC[C@@H]5SC[C@@H]6NC(=O)N[C@@H]65)O[C@@H]4C(=O)O)[C@@H]3NC(C)=O)O[C@@H]2C(=O)O)O[C@H](CO)[C@H](O)[C@@H]1O` and report it.
### Response 2030
